The origin of these recorded values is ChEMBL document CHEMBL2390858.

Each entry below carries its reported MIC.
- System: Pseudomonas aeruginosa
- ASSAY_DETAILS: microbe, parasite or virus in culture

A selection of reference data follows.
>  <COMPOUND>
O=C(Nc1ncco1)NC12CC3CC(CC(C3)C1)C2

>  <TESTED_ON>
Pseudomonas aeruginosa

>  <MIC>
> 200 mg/L

$$$$
>  <COMPOUND>
O=C(Nc1ncncn1)NC12CC3CC(CC(C3)C1)C2

>  <TESTED_ON>
Pseudomonas aeruginosa

>  <MIC>
> 200 mg/L

$$$$
>  <COMPOUND>
O=C(Nc1ccccn1)NC12CC3CC(CC(C3)C1)C2

>  <TESTED_ON>
Pseudomonas aeruginosa

>  <MIC>
> 200 mg/L

$$$$

response.value for O=C(Nc1ncco1)NC1C2CC3CC(C2)CC1C3 (configuration not stated) (field: MIC) = > 200 mg/L

response.value for "CCn1ccc(NC(=O)NC23CC4CC(CC(C4)C2)C3)n1" (field: MIC) = > 200 mg/L

response.value for "O=C(Nc1nc2ccccc2s1)NC12CC3CC(CC(C3)C1)C2" (field: MIC) = > 200 mg/L

response.value for "Cc1onc(NC(=O)NC23CC4CC(CC(C4)C2)C3)c1Br" (field: MIC) = > 200 mg/L

response.value for "O=C(Nc1ncccn1)NC12CC3CC(CC(C3)C1)C2" (field: MIC) = > 200 mg/L
